MIC90 values recorded for Fusobacterium russii

>  <Compound>
CCC[C@@H]1C[C@@H](C(=O)N[C@@H]([C@H]2O[C@H](SC)[C@H](O)[C@@H](O)[C@H]2O)[C@H](C)Cl)N(C)C1 [Clindamycin]

>  <Reading Unit>
µg/mL

>  <Inequality Symbol>
=

>  <MIC90>
0.06

$$$$
>  <Compound>
N[C@@H]1[C@H]2CN(c3nc4c(cc3F)c(=O)c(C(=O)O)cn4-c3ccc(F)cc3F)C[C@@H]12 [Trovafloxacin]

>  <Reading Unit>
µg/mL

>  <Inequality Symbol>
=

>  <MIC90>
4

$$$$
>  <Compound>
CC[C@H]1OC(=O)[C@H](C)[C@@H](O[C@H]2C[C@@](C)(OC)[C@@H](O)[C@H](C)O2)[C@H](C)[C@@H](O[C@@H]2O[C@H](C)C[C@H](N(C)C)[C@H]2O)[C@](C)(O)C[C@@H](C)CN(C)[C@H](C)[C@@H](O)[C@]1(C)O [Azithromycin]

>  <Reading Unit>
µg/mL

>  <Inequality Symbol>
=

>  <MIC90>
32

$$$$
>  <Compound>
CO/N=C1\CN(c2nc3c(cc2F)c(=O)c(C(=O)O)cn3C2CC2)CC1CN (racemic) [Gemifloxacin]

>  <Reading Unit>
µg/mL

>  <Inequality Symbol>
≥

>  <MIC90>
4

$$$$
>  <Compound>
CC[C@H]1OC(=O)[C@H](C)[C@@H](O[C@H]2C[C@@](C)(OC)[C@@H](O)[C@H](C)O2)[C@H](C)[C@@H](O[C@@H]2O[C@H](C)C[C@H](N(C)C)[C@H]2O)[C@](C)(O)C[C@@H](C)C(=O)[C@H](C)[C@@H](O)[C@]1(C)O [Erythromycin]

>  <Reading Unit>
µg/mL

>  <Inequality Symbol>
>

>  <MIC90>
32

$$$$
>  <Compound>
Cc1ncc([N+](=O)[O-])n1CCO [Metronidazole]

>  <Reading Unit>
µg/mL

>  <Inequality Symbol>
=

>  <MIC90>
0.25

$$$$
>  <Compound>
CC[C@H]1OC(=O)[C@H](C)[C@@H](O[C@H]2C[C@@](C)(OC)[C@@H](O)[C@H](C)O2)[C@H](C)[C@@H](O[C@@H]2O[C@H](C)C[C@H](N(C)C)[C@H]2O)[C@](C)(OC)C[C@@H](C)C(=O)[C@H](C)[C@@H](O)[C@]1(C)O [Clarithromycin]

>  <Reading Unit>
µg/mL

>  <Inequality Symbol>
>

>  <MIC90>
32

$$$$

====

test system: Bacteroides ureolyticus; test: Agar dilution MIC; format: cell-based; settings: 17 isolates
We begin with a simple list: items and their reported Minimal Inhibitory Concentration Range.
Recorded Endpoint: Minimal Inhibitory Concentration Range

>  <Structure As Smiles>
CC[C@H]1OC(=O)[C@H](C)[C@@H](O[C@H]2C[C@@](C)(OC)[C@@H](O)[C@H](C)O2)[C@H](C)[C@@H](O[C@@H]2O[C@H](C)C[C@H](N(C)C)[C@H]2O)[C@](C)(OC)C[C@@H](C)C(=O)[C@H](C)[C@@H](O)[C@]1(C)O

>  <Target Desc>
Bacteroides ureolyticus

>  <Measured Value>
0.125 to 4 µg/mL

$$$$
>  <Structure As Smiles>
Cc1ncc([N+](=O)[O-])n1CCO

>  <Target Desc>
Bacteroides ureolyticus

>  <Measured Value>
0.06 to 2 µg/mL

$$$$
>  <Structure As Smiles>
CCC[C@@H]1C[C@@H](C(=O)N[C@@H]([C@H]2O[C@H](SC)[C@H](O)[C@@H](O)[C@H]2O)[C@H](C)Cl)N(C)C1

>  <Target Desc>
Bacteroides ureolyticus

>  <Measured Value>
0.03 to 0.5 µg/mL

$$$$
>  <Structure As Smiles>
CC[C@H]1OC(=O)[C@H](C)[C@@H](O[C@H]2C[C@@](C)(OC)[C@@H](O)[C@H](C)O2)[C@H](C)[C@@H](O[C@@H]2O[C@H](C)C[C@H](N(C)C)[C@H]2O)[C@](C)(O)C[C@@H](C)CN(C)[C@H](C)[C@@H](O)[C@]1(C)O

>  <Target Desc>
Bacteroides ureolyticus

>  <Measured Value>
0.06 to 0.25 µg/mL

$$$$

Origin of values: patent US6455540B1
